Attribution: paper PMC9247258

The compounds below have reported pIC50 for mushroom tyrosinase (Agaricus bisporus, UniProt C7FF04).
pIC50: −log10 of the molar value.

Consider the reported pIC50 for these compounds:
| COMPOUND | MEASURED TARGET | RESULT |
| --- | --- | --- |
| Cn1ccc(-c2cccc(F)c2)c1CNC(=O)OC(C)(C)C [Compound B4] | mushroom tyrosinase (Agaricus bisporus, UniProt C7FF04) | < 3.70 |
| Cn1ccc(-c2cccc(Br)c2)c1C(N)=O [Compound B1] | mushroom tyrosinase (Agaricus bisporus, UniProt C7FF04) | < 3.70 |
| Cn1ccc(-c2ccccc2F)c1CNC(=O)OC(C)(C)C [Compound B8] | mushroom tyrosinase (Agaricus bisporus, UniProt C7FF04) | < 3.70 |
| Cn1ccc(-c2ccc(Br)cc2)c1C(N)=O [Compound B2] | mushroom tyrosinase (Agaricus bisporus, UniProt C7FF04) | < 3.70 |

What value of pIC50 has been reported for the following compound? C=Cc1ccccc1-c1ccn(C)c1C#N [Compound A12] 6.01

Try the compound Cn1ccc(-c2ccc(Br)cc2)c1CNC(=O)OC(C)(C)C [Compound B3] < 3.70
